Biological target: human GLP-1R (Homo sapiens)
Sequence (P43220 24-463 G168S): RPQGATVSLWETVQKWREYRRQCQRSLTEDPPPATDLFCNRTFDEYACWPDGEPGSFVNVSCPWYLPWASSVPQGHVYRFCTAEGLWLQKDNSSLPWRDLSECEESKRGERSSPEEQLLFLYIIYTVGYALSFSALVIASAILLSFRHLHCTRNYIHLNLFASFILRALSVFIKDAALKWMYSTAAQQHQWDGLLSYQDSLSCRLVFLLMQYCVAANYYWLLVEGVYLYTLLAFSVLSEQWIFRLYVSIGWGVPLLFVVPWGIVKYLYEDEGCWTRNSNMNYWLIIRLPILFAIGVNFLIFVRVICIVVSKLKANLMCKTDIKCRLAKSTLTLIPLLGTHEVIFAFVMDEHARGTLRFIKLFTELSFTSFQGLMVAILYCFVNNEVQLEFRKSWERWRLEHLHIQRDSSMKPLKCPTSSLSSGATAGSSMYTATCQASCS
Experiment: CHO GLP-1R Clone H6 - Assay 1 (HTRF cAMP agonist assay)
Metric Name: pEC50
Scale: negative log10 of molar concentration, which is what pEC50 denotes.

Fill in pEC50 for record N#Cc1ccc(COc2cccc(C3CCN(Cc4nc5ccc(C(=O)O[C@@H]6O[C@H](C(=O)O)[C@@H](O)[C@H](O)[C@H]6O)cc5n4C[C@@H]4CCO4)CC3)n2)c(F)c1 [Compound M1]
6.89
